System: OVCAR-4
TEST_DESCRIPTION: NCI tumour cell line growth inhibition, 48 h
Active and inactive are the calls of the source. Cut-off read from the data, not from the text of the source: active = GI50 up to about 1.1 µM and inactive = higher.
Return exactly one item of Yes = active, No = inactive

Query :: Short answer needed: outcome of this test for c1ccc(C2=NN(c3ccccc3)C3(S2)SC(c2ccccc2)(c2ccccc2)c2ccccc23)cc1 (stereo not given) ?
Result :: No

Query :: Short answer needed: outcome of this test for COc1ccc(C2=NN(c3ccccc3)C(c3cc4cc(Br)ccc4nc3Cl)C2)cc1 (stereo not given) ?
Result :: No

Query :: Short answer needed: outcome of this test for O=C1/C(=C/c2ccc(Cl)cc2)N=C(c2ccccc2)N1c1ccc(S(=O)(=O)Nc2nccs2)cc1 ?
Result :: No

Query :: Short answer needed: outcome of this test for CCOC(=O)/C=C/C(Br)=C(Br)/C=C/C(=O)OCC ?
Result :: No

Query :: Short answer needed: outcome of this test for COCOc1ccc(C2(O)Oc3cc(OCOC)ccc3C2C)c(O)c1 (stereo not given) ?
Result :: No

Query :: Short answer needed: outcome of this test for O=C(N/C(=C\c1ccc([N+](=O)[O-])cc1)c1nc2c(O)nc(S)nc2[nH]1)c1ccccc1 ?
Result :: No

Query :: Short answer needed: outcome of this test for Cn1c(=O)c2c([nH]/c(=N/N=C/c3ccccc3C(=O)O)n2C)n(C)c1=O ?
Result :: No

Query :: Short answer needed: outcome of this test for C=CCCCN1C(=O)C2C3c4ccccc4C(C=O)(c4ccccc43)C2C1=O (stereo not given) ?
Result :: No

Query :: Short answer needed: outcome of this test for CCN(CC)CCC(=O)OC1C(C)=CC(C)C(=O)CC(C(C)CC2CCC(O)C(OC)C2)OC(=O)C2CCCCN2C(=O)C(=O)[C@@]2(O)OC(CCC2C)CC(OC)\C(C)=C/C=C/C=C/C(C)CC(C)C(=O)C1OC (stereo not given in full) ?
Result :: Yes

Query :: Short answer needed: outcome of this test for CC1OC(OC2C(OC(=O)[C@@H]3CC(C)(C)C[C@@H]4C5=CC[C@@H]6[C@@]7(C)C[C@H](O)[C@H](OC8OC(CO)C(O)C(O)C8O)[C@@](C)(CO)C7[C@H](O)C[C@@]6(C)[C@]5(C)C[C@@H](O)[C@H]43)OCC(O)C2O)C(O)C(O)C1O (stereo not given in full) ?
Result :: No
